# Target: Aurora kinase B (Homo sapiens, UniProt Q96GD4)
# Sequence (Q96GD4 whole entry): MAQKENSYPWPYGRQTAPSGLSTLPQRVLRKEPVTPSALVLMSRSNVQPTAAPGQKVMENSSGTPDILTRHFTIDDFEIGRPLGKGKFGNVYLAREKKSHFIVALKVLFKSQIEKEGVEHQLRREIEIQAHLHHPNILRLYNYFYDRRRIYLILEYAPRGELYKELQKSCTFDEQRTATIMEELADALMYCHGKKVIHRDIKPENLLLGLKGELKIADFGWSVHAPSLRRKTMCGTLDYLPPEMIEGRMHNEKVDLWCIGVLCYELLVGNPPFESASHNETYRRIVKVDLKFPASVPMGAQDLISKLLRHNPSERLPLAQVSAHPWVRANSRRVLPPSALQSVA
# Experiment summary: Inhibition of human Aurora B using [H-LRRASLG] as substrate at 20 uM in presence of [gamma-33P]-ATP incubated for 2 hrs by hotspot kinase assay relative to control
Experimental readout: inhibition (%)

# count of solved cases: 4
Challenge: Consider the compound shown here: "CCOC(=O)c1cnc2ccc(C)cc2c1Nc1cccc(S(N)(=O)=O)c1" What is its recorded inhibition?
Response given: 57.7

Challenge: Consider the compound shown here: "CCOC(=O)c1cnc2cc(Cl)cc(Cl)c2c1Nc1cccc(S(N)(=O)=O)c1" What is its recorded inhibition?
Response given: 71.8

Challenge: Consider the compound shown here: "CCOC(=O)c1cnc2ccccc2c1Nc1cccc(S(N)(=O)=O)c1" What is its recorded inhibition?
Response given: 60.9

Challenge: Consider the compound shown here: "CCOC(=O)c1cnc2ccc(Br)cc2c1Nc1cccc(NS(C)(=O)=O)c1" What is its recorded inhibition?
Response given: 91.6

[a] CCOC(=O)c1cnc2ccc(C)cc2c1Nc1cccc(NS(C)(=O)=O)c1
[b] CCOC(=O)c1cnc2ccccc2c1Nc1cccc(S(=O)(=O)NC)c1
Challenge: When their inhibition values are compared, which is larger, a or b ? Indicate which entry you chose by stating its label.
Response given: a

* * *

# Target: Aurora kinase A (Homo sapiens)
# Sequence (whole entry): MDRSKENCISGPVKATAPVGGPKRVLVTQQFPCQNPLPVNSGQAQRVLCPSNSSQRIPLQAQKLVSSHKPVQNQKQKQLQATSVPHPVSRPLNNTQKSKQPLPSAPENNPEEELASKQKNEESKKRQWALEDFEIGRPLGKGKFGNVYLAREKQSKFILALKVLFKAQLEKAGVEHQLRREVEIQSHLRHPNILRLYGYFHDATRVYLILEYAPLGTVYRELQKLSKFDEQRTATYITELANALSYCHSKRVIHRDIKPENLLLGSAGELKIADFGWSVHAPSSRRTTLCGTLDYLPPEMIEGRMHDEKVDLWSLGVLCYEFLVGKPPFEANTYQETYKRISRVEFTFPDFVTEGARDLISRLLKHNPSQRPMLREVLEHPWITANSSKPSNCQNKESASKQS
# Experiment summary: Inhibition of human Aurora A using [H-LRRASLG] as substrate at 20 uM in presence of [gamma-33P]-ATP incubated for 2 hrs by hotspot kinase assay relative to control
Experimental readout: inhibition (%)

# count of solved cases: 5
Challenge: Consider the compound shown here: "CCOC(=O)c1cnc2ccc(Br)cc2c1Nc1cccc(NS(C)(=O)=O)c1" What is its recorded inhibition?
Response given: 66

Challenge: Consider the compound shown here: "CCOC(=O)c1cnc2ccccc2c1Nc1cccc(S(N)(=O)=O)c1" What is its recorded inhibition?
Response given: 64.3

Challenge: Consider the compound shown here: "CCOC(=O)c1cnc2cc(Cl)cc(Cl)c2c1Nc1cccc(S(=O)(=O)NC)c1" What is its recorded inhibition?
Response given: 58.6

Challenge: Consider the compound shown here: "CCOC(=O)c1cnc2ccc(C)cc2c1Nc1cccc(S(=O)(=O)NC)c1" What is its recorded inhibition?
Response given: 6.43

Challenge: Consider the compound shown here: "CCOC(=O)c1cnc2ccc(Br)cc2c1Nc1cccc(S(=O)(=O)NC)c1" What is its recorded inhibition?
Response given: 10.7

[A] CCOC(=O)c1cnc2ccc(C)cc2c1Nc1cccc(S(N)(=O)=O)c1
[B] CCOC(=O)c1cnc2ccccc2c1Nc1cccc(S(=O)(=O)NC)c1
[C] CCOC(=O)c1cnc2ccc(Br)cc2c1Nc1cccc(S(N)(=O)=O)c1
Challenge: # rank by inhibition, ascending (min first) Enter labels, ranked according to the request.
Response given: B, A, C
(B: 6.15%, A: 14.9%, C: 26.9%)

* * *

pIC50: −log10 of the molar value.
Each entry below carries its measured pIC50, system: Aurora kinase B (Homo sapiens, UniProt Q96GD4).
Experimental readout: pIC50

[1] CCOC(=O)c1cnc2ccccc2c1Nc1cccc(S(N)(=O)=O)c1
[2] CCOC(=O)c1cnc2ccc(Br)cc2c1Nc1cccc(NS(C)(=O)=O)c1
Challenge: When their pIC50 values are compared, which is larger, 1 or 2 ? Indicate which entry you chose by stating its label.
Response given: 2
(2: 5.87, 1: 4.90)

* * *

# System: CAKI-1
# Experiment summary: Antitumor activity against human CAKI-1 cells assessed as growth inhibition at 10-'5 M incubated for 48 hrs by SRB assay relative to control
# Type: functional
Experimental readout: growth inhibition (GI)

Challenge: Consider the molecule shown here: "CCOC(=O)c1cnc2ccc(Br)cc2c1Nc1cccc(S(N)(=O)=O)c1" What is its recorded growth inhibition (GI)?
Response given: >=20%

Challenge: Consider the molecule shown here: "CCOC(=O)c1cnc2ccccc2c1Nc1cccc(S(=O)(=O)NC)c1" What is its recorded growth inhibition (GI)?
Response given: >=20%

Challenge: Consider the molecule shown here: "CCOC(=O)c1cnc2ccccc2c1Nc1cccc(S(N)(=O)=O)c1" What is its recorded growth inhibition (GI)?
Response given: >=20%

Challenge: Consider the molecule shown here: "CCOC(=O)c1cnc2cc(Cl)cc(Cl)c2c1Nc1cccc(S(=O)(=O)NC)c1" What is its recorded growth inhibition (GI)?
Response given: 41%

* * *

Each entry below carries its measured IC50, system: Aurora kinase A (Homo sapiens, UniProt O14965).
Experimental readout: IC50 (µM)

Challenge: Consider the compound shown here: "CCOC(=O)c1cnc2ccc(C)cc2c1Nc1cccc(NS(C)(=O)=O)c1" What is its recorded IC50?
Response given: 0.98

[a] CCOC(=O)c1cnc2cc(Cl)cc(Cl)c2c1Nc1cccc(S(N)(=O)=O)c1
[b] CCOC(=O)c1cnc2cc(Cl)cc(Cl)c2c1Nc1cccc(S(=O)(=O)NC)c1
Challenge: When their IC50 values are compared, which is larger, a or b ? Indicate which entry you chose by stating its label.
Response given: a
(a: 7.64 µM, b: 0.93 µM)

* * *

# Target: Aurora kinase B (Homo sapiens, UniProt Q96GD4)
# Experiment summary: Inhibition of human Aurora B using [H-LRRASLG] as substrate at 20 uM in presence of [gamma-33P]-ATP incubated for 2 hrs by hotspot kinase assay relative to control
Experimental readout: inhibition (%)

# count of solved cases: 2
Challenge: Consider the compound shown here: "CCOC(=O)c1cnc2ccc(C)cc2c1Nc1cccc(S(=O)(=O)NC)c1" What is its recorded inhibition?
Response given: 18.7

Challenge: Consider the compound shown here: "CCOC(=O)c1cnc2ccc(Br)cc2c1Nc1cccc(S(N)(=O)=O)c1" What is its recorded inhibition?
Response given: 87.4

[A] CCOC(=O)c1cnc2cc(Cl)cc(Cl)c2c1Nc1cccc(S(=O)(=O)NC)c1
[B] CCOC(=O)c1cnc2ccc(Br)cc2c1Nc1cccc(S(=O)(=O)NC)c1
[C] CCOC(=O)c1cnc2ccccc2c1Nc1cccc(NS(C)(=O)=O)c1
Challenge: # rank by inhibition, ascending (min first) Enter labels, ranked according to the request.
Response given: B, C, A
(B: 21.4%, C: 56.6%, A: 90.8%)

* * *

# Target: UniProtKB O14965
# Experiment summary: Inhibition of human Aurora A using [H-LRRASLG] as substrate at 20 uM in presence of [gamma-33P]-ATP incubated for 2 hrs by hotspot kinase assay relative to control
Experimental readout: inhibition (%)

Challenge: Consider the molecule shown here: "CCOC(=O)c1cnc2cc(Cl)cc(Cl)c2c1Nc1cccc(S(N)(=O)=O)c1" What is its recorded inhibition?
Response given: 61.3

Challenge: Consider the molecule shown here: "CCOC(=O)c1cnc2ccccc2c1Nc1cccc(NS(C)(=O)=O)c1" What is its recorded inhibition?
Response given: 71.9

Challenge: Consider the molecule shown here: "CCOC(=O)c1cnc2ccc(C)cc2c1Nc1cccc(NS(C)(=O)=O)c1" What is its recorded inhibition?
Response given: 64.4
